# System: Echinochloa crus-galli (ECHCG)
# test name: Post-emergence herbicidal action, greenhouse pot trial
# Format: in vivo
# stated conditions: Echinochloa crus-galli, 504 h, 80 g/ha, visual rating after about 3 weeks, read-out: Post-emergence effect at 80 g/ha against ECHCG in %
value type: pest or weed control at 80 g/ha

{"compound": "CSC(Oc1nn(-c2ncccc2F)c(-c2ccc(F)nc2)c1Br)C(=O)O (stereo not shown) [Example I-34]", "system": "Echinochloa crus-galli (ECHCG)", "assay value": "80%"}
{"compound": "CSC(Oc1nn(-c2ncccc2F)c(-c2ccc(F)nc2)c1Cl)C(=O)O (stereo not shown) [Example I-31]", "system": "Echinochloa crus-galli (ECHCG)", "assay value": "80%"}
{"compound": "CCOC(=O)C(Oc1nn(-c2ccccc2F)c(-c2ccc(F)nc2)c1Br)SC (single isomer, unassigned) [Example I-30]", "system": "Echinochloa crus-galli (ECHCG)", "assay value": "80%"}
{"compound": "CCOC(=O)C(Oc1nn(-c2ncccc2F)c(-c2cncc(F)c2)c1Br)SC (stereo not shown) [Example I-39]", "system": "Echinochloa crus-galli (ECHCG)", "assay value": "90%"}

====

# System: Viola tricolor (VIOTR)
# test name: Post-emergence herbicidal action, greenhouse pot trial
# Format: in vivo
# stated conditions: 320 g/ha

{"molecule": "COC(=O)CCOC(=O)C(Oc1nn(-c2ncccc2F)c(-c2cncc(F)c2)c1Br)SC (stereo not shown)", "Post-emergence effect against VIOTR": "90%"}
{"molecule": "CCOC(=O)C(Oc1nn(-c2ccccc2F)c(-c2ccc(F)nc2)c1Br)SC (single isomer, unassigned)", "Post-emergence effect against VIOTR": "80%"}
{"molecule": "CCOC(=O)C(Oc1nn(-c2ncccc2F)c(-c2ccc(F)nc2)c1Br)SC (single isomer, unassigned)", "Post-emergence effect against VIOTR": "90%"}
{"molecule": "CSC(Oc1nn(-c2ncccc2F)c(-c2ccc(F)nc2)c1Br)C(=O)O (single isomer, unassigned)", "Post-emergence effect against VIOTR": "90%"}
{"molecule": "COC(=O)C(C)COC(=O)C(Oc1nn(-c2ccccc2F)c(-c2ccc(F)nc2)c1I)SC (stereo not shown)", "Post-emergence effect against VIOTR": "90%"}
{"molecule": "COC(=O)CCOC(=O)C(Oc1nn(-c2ncccc2F)c(-c2ccc(F)nc2)c1Br)SC (single isomer, unassigned) [Example I-23]", "Post-emergence effect against VIOTR": "90%"}
{"molecule": "COC(=O)CCOC(=O)C(Oc1nn(-c2ncccc2F)c(-c2cncc(F)c2)c1C1CC1)SC (stereo not shown)", "Post-emergence effect against VIOTR": "90%"}

====

# Tested on: Veronica persica (VERPE)
# test name: Post-emergence herbicidal action, greenhouse pot trial
# Assay type: in vivo
# stated conditions: 80 g/ha, visual rating after about 3 weeks
# Method: Seeds of monocotyledonous and dicotyledonous weeds and crop plants are placed in sandy loam in plastic or organic planting pots, covered with soil and cultivated in a greenhouse under controlled growth conditions. 2 to 3 weeks after sowing, the trial plants are treated at the one-leaf stage. […]
In this section, each of the compounds is paired with its reported Post-emergence effect at 80 g/ha against VERPE in %.
value type: Post-emergence effect at 80 g/ha against VERPE in % (%)

{"compound": "CCOC(=O)C(Oc1nn(-c2ccccc2F)c(-c2ccc(F)nc2)c1Br)SC (single isomer, unassigned) [Example I-40]", "system": "Veronica persica (VERPE)", "measure unit": "%", "assay value": 80}
{"compound": "COC(=O)CCOC(=O)C(Oc1nn(-c2ncccc2F)c(-c2cncc(F)c2)c1C1CC1)SC (stereo not shown) [Example I-63]", "system": "Veronica persica (VERPE)", "measure unit": "%", "assay value": 80}
{"compound": "COC(=O)C(Oc1nn(-c2ncccc2F)c(-c2cncc(F)c2)c1C1CC1)SC (stereo not shown) [Example I-66]", "system": "Veronica persica (VERPE)", "measure unit": "%", "assay value": 90}
{"compound": "COC(=O)C(Oc1nn(-c2cc(F)ccc2F)c(-c2cncc(F)c2)c1C1CC1)SC (stereo not shown) [Example I-08]", "system": "Veronica persica (VERPE)", "measure unit": "%", "assay value": 80}

====

# Tested on: Digitaria sanguinalis (DIGSA)
# test name: Post-emergence herbicidal action, greenhouse pot trial
# Format: in vivo
# stated conditions: 80 g/ha, visual rating after about 3 weeks
value type: Post-emergence effect at 80 g/ha against DIGSA in % (%)

{"compound": "CSC(Oc1nn(-c2ncccc2F)c(-c2cncc(F)c2)c1Br)C(=O)O (stereo not drawn)", "measure unit": "%", "assay value": 80}
{"compound": "COC(=O)CCOC(=O)C(Oc1nn(-c2ncccc2F)c(-c2ccc(F)nc2)c1Br)SC (single isomer, unassigned) [Example I-23]", "measure unit": "%", "assay value": 90}
{"compound": "COC(=O)CCOC(=O)C(Oc1nn(-c2ncccc2F)c(-c2cncc(F)c2)c1Br)SC (stereo not drawn)", "measure unit": "%", "assay value": 80}
{"compound": "CCOC(=O)C(Oc1nn(-c2ccccc2F)c(-c2ccc(F)nc2)c1Br)SC (single isomer, unassigned) [Example I-30]", "measure unit": "%", "assay value": 80}
{"compound": "COC(=O)C(Oc1nn(-c2ncccc2F)c(-c2ccc(F)nc2)c1Br)SC (single isomer, unassigned)", "measure unit": "%", "assay value": 90}
{"compound": "COC(=O)C(Oc1nn(-c2ccccc2F)c(-c2ccc(F)nc2)c1Br)SC (stereo not drawn)", "measure unit": "%", "assay value": 90}
{"compound": "CCOC(=O)C(Oc1nn(-c2ncccc2F)c(-c2cncc(F)c2)c1Br)SC (stereo not drawn)", "measure unit": "%", "assay value": 80}
{"compound": "CSC(Oc1nn(-c2ncccc2F)c(-c2ccc(F)nc2)c1Br)C(=O)O (single isomer, unassigned) [Example I-25]", "measure unit": "%", "assay value": 80}
{"compound": "CCOC(=O)C(Oc1nn(-c2ncccc2F)c(-c2ccc(F)nc2)c1Br)SC (single isomer, unassigned)", "measure unit": "%", "assay value": 80}
{"compound": "CCOC(=O)C(Oc1nn(-c2ccccc2F)c(-c2ccc(F)nc2)c1Br)SC (single isomer, unassigned) [Example I-40]", "measure unit": "%", "assay value": 90}
{"compound": "CSC(Oc1nn(-c2ncccc2F)c(-c2ccc(F)nc2)c1Br)C(=O)O (stereo not drawn) [Example I-34]", "measure unit": "%", "assay value": 80}
{"compound": "COC(=O)CCOC(=O)C(Oc1nn(-c2ncccc2F)c(-c2ccc(F)nc2)c1Br)SC (racemic) [Example I-32]", "measure unit": "%", "assay value": 90}

====

# Test system: Bassia scoparia (KCHSC)
# test name: Post-emergence herbicidal action, greenhouse pot trial
# Assay type: in vivo
# stated conditions: Bassia scoparia, 504 h, 80 g/ha, read-out: Post-emergence effect against KCHSC
Catalogue of molecules with associated pest or weed control at 80 g/ha

{"molecule": "CCOC(=O)C(Oc1nn(-c2ncccc2F)c(-c2ccc(F)nc2)c1Br)SC (single isomer, unassigned) [Example I-29]", "system": "Bassia scoparia (KCHSC)", "measure unit": "%", "pest or weed control at 80 g/ha": 80}
{"molecule": "CSC(Oc1nn(-c2ncccc2F)c(-c2ccc(F)nc2)c1Br)C(=O)O (single isomer, unassigned) [Example I-24]", "system": "Bassia scoparia (KCHSC)", "measure unit": "%", "pest or weed control at 80 g/ha": 80}
{"molecule": "CCOC(=O)C(Oc1nn(-c2ncccc2F)c(-c2cncc(F)c2)c1Br)SC (centres unmarked) [Example I-39]", "system": "Bassia scoparia (KCHSC)", "measure unit": "%", "pest or weed control at 80 g/ha": 90}
{"molecule": "CCOC(=O)C(Oc1nn(-c2ccccc2F)c(-c2ccc(F)nc2)c1Br)SC (single isomer, unassigned) [Example I-40]", "system": "Bassia scoparia (KCHSC)", "measure unit": "%", "pest or weed control at 80 g/ha": 90}
{"molecule": "CSC(Oc1nn(-c2ncccc2F)c(-c2cncc(F)c2)c1Br)C(=O)O (centres unmarked) [Example I-42]", "system": "Bassia scoparia (KCHSC)", "measure unit": "%", "pest or weed control at 80 g/ha": 90}

====

Each record here notes measured Post-emergence effect at 80 g/ha against POLCO in %.
# System: Polygonum convolvulus (POLCO)
# test name: Post-emergence herbicidal action, greenhouse pot trial
# Format: in vivo
# stated conditions: 80 g/ha, visual rating after about 3 weeks
value type: Post-emergence effect at 80 g/ha against POLCO in %

{"molecule": "COC(=O)CCOC(=O)C(Oc1nn(-c2ncccc2F)c(-c2ccc(F)nc2)c1Br)SC (single isomer, unassigned) [Example I-23]", "assay value": "80%"}
{"molecule": "COC(=O)CCOC(=O)C(Oc1nn(-c2ncccc2F)c(-c2cncc(F)c2)c1Br)SC (stereo not drawn)", "assay value": "80%"}
{"molecule": "COC(=O)CCOC(=O)C(Oc1nn(-c2ncccc2F)c(-c2ccc(F)nc2)c1Br)SC (racemic) [Example I-32]", "assay value": "80%"}
{"molecule": "CCOC(=O)C(Oc1nn(-c2ncccc2F)c(-c2ccc(F)nc2)c1Br)SC (single isomer, unassigned)", "assay value": "90%"}
{"molecule": "COC(=O)CCOC(=O)C(Oc1nn(-c2ncccc2F)c(-c2ccc(F)nc2)c1Br)SC (single isomer, unassigned) [Example I-22]", "assay value": "90%"}
{"molecule": "COC(=O)C(Oc1nn(-c2ncccc2F)c(-c2ccc(F)nc2)c1Br)SC (single isomer, unassigned)", "assay value": "80%"}
